# System: HepG2
# EXPERIMENT SUMMARY: Antiproliferative activity against human HepG2 cells incubated for 48 hrs by CCK-8 method
# Format: functional, cell-based
# APPLIED CONDITIONS: HepG2, 48 h
pIC50: −log10 of the molar value.

{"columns": ["ITEM SMILES", "COMPARISON SIGN", "pIC50"],
 "data": [
  ["O=c1[nH]cc(F)c(=O)[nH]1", "<", 5.00],
  ["CC[C@@H](C)[C@@H](Cn1c[n+](Cc2ccccc2)c2ccccc21)NC(=O)Nc1cc(C(F)(F)F)cc(C(F)(F)F)c1", "=", 5.63],
  ["CC(C)Nc1cc(-c2c[nH]c(C(=O)N[C@H](CO)c3cccc(Cl)c3)c2)c(Cl)cn1", "=", 5.21]
]}

Data origin, for the record: ChEMBL document CHEMBL6153138
